// data source = PubChem BioAssay (NCI)

# Tested on: UACC-62 melanoma
# Procedure details: NCI tumour cell line growth inhibition, 48 h
The entries below come with measured TGI values attached.

Cc1ccc(/C=N/NC(=O)c2ccccc2Oc2ccccc2)o1    > 81.2 µM
Cc1cc(N2CCOCC2)nc2ccc(Cc3ccc4nc(N5CCOCC5)cc(C)c4c3)cc12    > 100 µM
C[C@@H](Nc1cc(F)cc(F)c1)c1cc(C(=O)N(C)C)cc2c(=O)cc(N3CCOCC3)oc12    20.9 µM

Lab note: next compound to report on.
For CCC12C=CCN(CCc3c([nH]c4ccccc34)/C=C\1)C2 (stereo not drawn) , what is its reported TGI?
> 100 µM
